Reference for the values: patent US20240190880A1

TARGET_OR_SYSTEM: ER (Homo sapiens)
Construct: host or cells: T47D and MCF7 human breast cancer cells
Sequence (P03372 1-595): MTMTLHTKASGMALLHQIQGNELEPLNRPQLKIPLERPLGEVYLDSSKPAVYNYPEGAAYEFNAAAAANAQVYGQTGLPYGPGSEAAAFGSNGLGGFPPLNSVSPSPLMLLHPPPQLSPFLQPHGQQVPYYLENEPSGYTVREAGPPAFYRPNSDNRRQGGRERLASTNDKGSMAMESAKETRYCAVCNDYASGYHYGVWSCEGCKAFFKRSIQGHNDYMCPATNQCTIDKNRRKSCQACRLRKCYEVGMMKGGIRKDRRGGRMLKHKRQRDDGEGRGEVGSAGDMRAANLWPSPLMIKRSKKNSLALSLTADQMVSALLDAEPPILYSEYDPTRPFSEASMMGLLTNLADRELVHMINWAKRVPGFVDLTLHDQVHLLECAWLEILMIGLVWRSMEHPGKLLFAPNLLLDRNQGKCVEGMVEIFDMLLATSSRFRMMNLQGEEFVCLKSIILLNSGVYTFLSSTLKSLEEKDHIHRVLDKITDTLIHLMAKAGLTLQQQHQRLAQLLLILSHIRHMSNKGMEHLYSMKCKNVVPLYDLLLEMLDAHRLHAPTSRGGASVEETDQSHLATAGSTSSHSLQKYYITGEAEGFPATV
ASSAY_EXPLANATION: ER degradation activity, in-cell western blot analysis in T47D cells
Format: cell-based
ASSAY_CONDITIONS: 16 hours, Table A does not say which cell line (T47D or MCF7), read-out: Potency (DC50)
Protocol: ER degradation activity was evaluated in the human breast cancer cell line T47D and MCF7 purchased from the American Type Culture Collection (ATCC), Manassas, VA, and maintained and cultured in Dulbecco's Modified Eagle's medium (DMEM) containing 10% fetal bovine serum, 1 unit/ml of penicillin and 1 μg/ml of streptomycin. […]
EXPERIMENTAL_ENDPOINT: DC50

>  <COMPOUND>
C[C@@H]1Cc2c([nH]c3ccccc23)[C@@H](c2c(F)cc(N3CCC(CN4Cc5cc6c(cc5C4)C(=O)N(C4CCC(=O)NC4=O)C6)CC3)cc2F)N1CC(F)F (stereo partly shown)

>  <EXPERIMENTAL_ENDPOINT>
DC50

>  <VALUE_OBSERVED>
> 100 nM

$$$$
>  <COMPOUND>
C[C@@H]1Cc2c([nH]c3ccccc23)[C@@H](c2c(F)cc(N3CCC4(CC3)CC(C(=O)N3CCC(CN5Cc6cc7c(cc6C5)C(=O)N(C5CCC(=O)NC5=O)C7=O)CC3)C4)cc2F)N1CC(F)F (stereo partly shown)

>  <EXPERIMENTAL_ENDPOINT>
DC50

>  <VALUE_OBSERVED>
10 to 100 nM

$$$$
>  <COMPOUND>
C[C@@H]1Cc2c([nH]c3ccccc23)[C@@H](c2c(F)cc(N3CC4(CCN(CC(=O)N5Cc6cc7c(cc6C5)C(=O)N(C5CCC(=O)NC5=O)C7)CC4)C3)cc2F)N1CC(F)F (stereo partly shown)

>  <EXPERIMENTAL_ENDPOINT>
DC50

>  <VALUE_OBSERVED>
< 10 nM

$$$$

For O=C1CCC(N2C(=O)c3cc4c(cc3C2=O)CN(CC2CCN(c3ccc([C@@H]5c6ccc(O)cc6CC[C@@H]5c5ccccc5)cc3)CC2)C4)C(=O)N1 (mixture of isomers) on ER (Homo sapiens), measured DC50 was 10 to 100 nM
